Values were extracted from patent US6806267B1.

- Experimental System: peripheral-type benzodiazepine receptor (PBR) (Homo sapiens, UniProt P30536)
- Construct: Cell homogenates (50 μg protein) were incubated with 0.5-50 nM [^3H]; PK 11195; endogenous in cells; host or cells: HL-60 cell homogenate
- Sequence (P30536 whole entry): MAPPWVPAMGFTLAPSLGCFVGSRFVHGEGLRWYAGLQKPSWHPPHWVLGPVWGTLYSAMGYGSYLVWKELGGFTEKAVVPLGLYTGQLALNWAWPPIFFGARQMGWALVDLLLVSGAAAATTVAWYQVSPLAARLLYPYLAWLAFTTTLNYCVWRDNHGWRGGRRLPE
- Assay Explanation: Radioligand binding assay, inhibition of [^3H]PK 11195 binding to HL-60 homogenates
- Details: HL-60 homogenates, 2 nM [^3H]PK 11195; mean±SEM; read-out: Inhibition of [^3H]PK 11195 binding to the PBR, Ki value
Would you kindly list Ki for each of these molecules?

- CNC(=O)OC1=C(c2cccc3ccccc23)Oc2ccccc2-n2cccc21 [PBOX-7]: 1.7 nM
- CN(C)C(=O)OC1=C(c2cccc3ccccc23)Oc2ccccc2-n2cccc21 [PBOX-6]: 6.7 nM

Which Ki value is on record for CC(=O)OC1=C(c2cccc3ccccc23)Oc2ccccc2-n2cccc21 [PBOX-4] ?
1.9 nM
